Test System: T1, human SLC34A2 (human, UniProt O95436 1-690)
T1 construct: whole, on cells; also called human solute carrier 34 A2; NaPi2b
T1 sequence (looked up): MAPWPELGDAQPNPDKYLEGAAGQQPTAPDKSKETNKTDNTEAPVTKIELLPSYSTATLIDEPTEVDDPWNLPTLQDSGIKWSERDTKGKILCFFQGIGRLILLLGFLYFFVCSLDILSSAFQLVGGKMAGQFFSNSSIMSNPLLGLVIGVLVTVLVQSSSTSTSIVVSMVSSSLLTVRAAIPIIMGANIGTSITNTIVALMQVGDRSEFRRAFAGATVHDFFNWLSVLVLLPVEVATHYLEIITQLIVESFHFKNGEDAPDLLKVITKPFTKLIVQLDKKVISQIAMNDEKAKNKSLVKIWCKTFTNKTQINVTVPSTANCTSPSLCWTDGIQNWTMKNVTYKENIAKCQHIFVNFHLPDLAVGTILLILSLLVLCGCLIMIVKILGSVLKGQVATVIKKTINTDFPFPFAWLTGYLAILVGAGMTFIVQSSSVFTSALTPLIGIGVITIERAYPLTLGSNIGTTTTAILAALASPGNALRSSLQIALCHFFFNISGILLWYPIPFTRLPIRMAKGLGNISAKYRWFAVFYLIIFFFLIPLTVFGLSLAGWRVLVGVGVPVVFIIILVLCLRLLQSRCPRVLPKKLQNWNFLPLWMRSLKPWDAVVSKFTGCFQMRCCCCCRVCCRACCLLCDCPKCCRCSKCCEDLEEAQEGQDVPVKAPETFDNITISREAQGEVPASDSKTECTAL
Measurement Description: FACS, HEK293/human SLC34A2 cells
Description: In another testing, cell based binding of hu Abs on human SLC34A2 expressing cells were assessed using flow cytometry. Briefly, the HEK293/H_SLC34A2, OVCAR3 and RMG-1 cells were incubated with hu Abs. After incubation at 4° C. for 60 minutes, the cells were washed with FACS buffer twice, then stained with fluorescent conjugated secondary antibody at 4° C. for 30 minutes. After that the cells were washed twice and analyzed by flow cytometry.
Measured Parameter: Top (MFI)

# Binder, Readout Number
records = [
    ("63A11D5B4.p1.z9 hIgG1 (antibody, V domains shown, humanized hIgG1) VH: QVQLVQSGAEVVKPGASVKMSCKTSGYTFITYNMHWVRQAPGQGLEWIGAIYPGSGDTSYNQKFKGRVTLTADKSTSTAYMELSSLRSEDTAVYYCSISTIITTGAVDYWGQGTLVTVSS VL: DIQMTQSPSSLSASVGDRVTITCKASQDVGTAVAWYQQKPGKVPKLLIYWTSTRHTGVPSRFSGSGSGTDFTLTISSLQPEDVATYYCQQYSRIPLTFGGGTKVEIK", 36800),
    ("63A11D5B4 VH_P1/VL hIgG1 (antibody, V domains shown, PTM-derisked chimeric, hIgG1; that P1 is the SG version follows from the humanized .p1 chains; also called 63A11D5B4.p1 hIgG1) VH: QVQLQQPGAELVKPGASVKMSCRTSGYTFITYNMHWVKQTPGQGREWIGAIYPGSGDTSYNQKFKGKATLTADKSSSTAYMQLNSLTSEDSAVYYCSISTIITTGAVDYWGQGTSVTVAS VL: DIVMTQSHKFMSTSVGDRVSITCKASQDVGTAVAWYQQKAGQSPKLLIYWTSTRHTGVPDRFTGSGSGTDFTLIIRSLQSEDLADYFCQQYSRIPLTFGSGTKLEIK", 35600),
    ("xi63A11D5B4 hIgG1 (antibody, V domains shown, chimeric, hIgG1) VH: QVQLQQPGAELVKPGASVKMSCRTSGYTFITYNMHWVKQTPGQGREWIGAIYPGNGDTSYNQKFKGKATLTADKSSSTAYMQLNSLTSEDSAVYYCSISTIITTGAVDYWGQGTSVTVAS VL: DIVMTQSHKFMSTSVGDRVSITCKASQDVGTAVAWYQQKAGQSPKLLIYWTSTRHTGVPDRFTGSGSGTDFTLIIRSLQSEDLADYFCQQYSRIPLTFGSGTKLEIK", 35600),
    ("xi91C9F1 hIgG1 (antibody, V domains shown, chimeric, hIgG1) VH: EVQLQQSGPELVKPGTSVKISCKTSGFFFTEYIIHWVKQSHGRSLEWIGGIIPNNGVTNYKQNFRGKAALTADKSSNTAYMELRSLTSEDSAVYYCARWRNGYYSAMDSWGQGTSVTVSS VL: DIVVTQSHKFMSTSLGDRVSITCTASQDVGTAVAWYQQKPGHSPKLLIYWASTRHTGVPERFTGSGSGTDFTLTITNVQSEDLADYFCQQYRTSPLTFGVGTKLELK", 32100),
    ("xi62G10E4G8 hIgG1 (antibody, V domains shown, chimeric, hIgG1) VH: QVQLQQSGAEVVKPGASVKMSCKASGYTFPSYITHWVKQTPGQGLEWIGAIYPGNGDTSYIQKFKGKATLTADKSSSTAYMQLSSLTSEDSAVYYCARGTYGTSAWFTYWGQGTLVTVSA VL: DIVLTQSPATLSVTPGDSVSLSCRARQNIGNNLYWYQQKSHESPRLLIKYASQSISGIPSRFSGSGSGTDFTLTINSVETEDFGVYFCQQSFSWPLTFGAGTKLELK", 32700),
]
